Field: melting point. Provide a value for each of the molecules that follow.

Prompt line: melting point for `COc1ccc(C(=O)CN2C(=O)S/C(=C\c3ccc(C)cc3)C2=O)cc1` ?
Response line: 174 to 176 °C

Prompt line: melting point for `O=C1NC(=O)/C(=C/C=C/c2ccccc2[N+](=O)[O-])S1` ?
Response line: 119 to 120 °C

Prompt line: melting point for `O=C1NC(=O)/C(=C/c2cncc3ccccc23)S1` ?
Response line: 118 to 119.5 °C

Prompt line: melting point for `O=C1S/C(=C\c2c(Cl)cccc2Cl)C(=O)N1Cc1cccc(Cl)c1` ?
Response line: 110 to 111 °C

Prompt line: melting point for `Cc1ccc(/C=C2\SC(=O)NC2=O)cc1Br` ?
Response line: 196 to 197 °C

Prompt line: melting point for `O=C1NC(=O)/C(=C/c2c(O)ccc3ccccc23)S1` ?
Response line: 194 to 195 °C

Prompt line: melting point for `COc1cc(OC)c(OC)cc1/C=C1\SC(=O)NC1=O` ?
Response line: 158 to 160 °C

Prompt line: melting point for `O=C1S/C(=C\c2cc(Cl)ccc2O)C(=O)N1Cc1cccc(Cl)c1` ?
Response line: 201 to 202 °C

Prompt line: melting point for `COc1ccc(/C=C2\SC(=O)NC2=O)c(Br)c1O` ?
Response line: 245 °C

###

# STUDY SYSTEM: PaPhzS (Pseudomonas aeruginosa, UniProt Q9HWG9)
# Construct: implied by pET28a and the HisTrap purification; made in house; host or cells: E. coli Rosetta (DE3)
# PROCEDURE TEXT: Compounds' affinity calculation by TSA (fraction of unfolded protein, DSFit software)
# Format: binding, P. aeruginosa
# RUN PARAMETERS: LE: 1.4*pKd/HA, from DSFit Kd
Field: LE (DSFit software). Provide a value for each of the molecules that follow.

Prompt line: LE (DSFit software) for O=C1NC(=O)/C(=C\c2ccc(OCc3nc4ccccc4c(=O)n3-c3ccccc3)cc2)S1 [A, reference compound] ?
Response line: 0.21

Prompt line: LE (DSFit software) for `COc1ccc(/C=C2\SC(=O)NC2=O)c(Br)c1O` ?
Response line: 0.38

Prompt line: LE (DSFit software) for `COCn1cc(/C=C2\SC(=O)NC2=O)c2ccccc21` ?
Response line: 0.30

Prompt line: LE (DSFit software) for `O=C1NC(=O)/C(=C/c2cc(Cl)ccc2O)S1` ?
Response line: 0.47

Prompt line: LE (DSFit software) for `O=C1NC(=O)C(=Cc2cc(Cl)cc(Br)c2O)S1` ?
Response line: 0.36

###

# STUDY SYSTEM: T1, PaPhzS (Pseudomonas aeruginosa, UniProt Q9HWG9)
# T1 construct: implied by pET28a and the HisTrap purification
# T1 sequence (Q9HWG9 whole entry): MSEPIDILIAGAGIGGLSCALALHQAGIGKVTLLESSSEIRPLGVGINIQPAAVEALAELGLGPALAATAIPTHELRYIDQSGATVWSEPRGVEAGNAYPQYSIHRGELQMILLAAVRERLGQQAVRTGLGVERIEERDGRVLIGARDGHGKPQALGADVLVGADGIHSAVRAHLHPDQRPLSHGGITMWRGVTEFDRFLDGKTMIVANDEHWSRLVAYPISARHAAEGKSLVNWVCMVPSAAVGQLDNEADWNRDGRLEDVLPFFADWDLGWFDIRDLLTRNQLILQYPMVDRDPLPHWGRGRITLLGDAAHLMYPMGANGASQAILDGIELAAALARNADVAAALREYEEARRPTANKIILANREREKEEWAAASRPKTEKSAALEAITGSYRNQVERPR
# PROCEDURE TEXT: Compounds' affinity calculation by TSA (fraction of unfolded protein, DSFit software)
# RUN PARAMETERS: Kd (DSFit software), TSA, fraction of unfolded PaPhzS at 43 °C, PaPhzS 5 µM, ligand 3.12 to 200 µM
# Procedure: The effect of ligand’s concentration (ranging from 3.12 to 200 µM) over the PaPhzS Tm (5 µM final concentration) was evaluated using the same parameters described in section (2.2.2). […] Briefly, the heat capacity (C) was calculated at two temperatures: 25 °C (before PhzS unfolding [T1]) and 50 °C (after PzhS unfolding [T2]) using Equation (2). […]
pKd: −log10 of the molar value.
Criterion: pKd meeting or surpassing 5. Met: fulfilled. Not met: not fulfilled.

Prompt line: Does pKd meet or surpass 5 for COCn1cc(/C=C2\SC(=O)NC2=O)c2ccccc21 [Compound 33] ?
Response line: not fulfilled

Prompt line: Does pKd meet or surpass 5 for O=C1NC(=O)C(=Cc2cc(Cl)cc(Br)c2O)S1 [Compound 15] ?
Response line: not fulfilled

Prompt line: Does pKd meet or surpass 5 for O=C1NC(=O)/C(=C/c2cc(Cl)ccc2O)S1 [Compound 16] ?
Response line: fulfilled
